B1: ZC3H15 (parent)
chain: RKADFKAGKALVISGREVFEFRPE

variants of: B1; assay: protein stability index of a GFP-peptide fusion (GPS, HEK-293T) (PSI 1-6); higher = more stable; conditions: c terminus: a fixed tail appended;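 further: lentivirally expressed fusions sorted by FACS into six bins by GFP to DsRed ratio, PSI derived from sequencing read proportions per bin multiplied by bin number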
The threshold is inclusive: protein stability index of exactly 3 counts as Satisfied; values below receive Not satisfied.

{"mutations": "A10K", "label": "Not satisfied"}
{"mutations": "A3T", "label": "Satisfied"}
{"mutations": "V18E", "label": "Satisfied"}
{"mutations": "K2M", "label": "Not satisfied"}
{"mutations": "V12A", "label": "Satisfied"}
{"mutations": "E24Y", "label": "Not satisfied"}
{"mutations": "E17V", "label": "Not satisfied"}
{"mutations": "R22Y", "label": "Not satisfied"}

Request: Hi, just wondering whether P23M shows protein stability index of 3 or higher.
Response: Not satisfied

Request: Reported protein stability index at or above 3? F21M
Response: Satisfied

Request: Could you tell me if the measured protein stability index of R22C reaches 3 or more?
Response: Not satisfied

Request: Check the entry P23W : does protein stability index equal or exceed 3?
Response: Not satisfied

Ref: the supplement of paper PMC10567573
